Target: T1, EsCas13d, nuclease-dead (Eubacterium siraeum, UniProt B0MS50, R295A;H300A;R849A;H854A)
T1 sequence: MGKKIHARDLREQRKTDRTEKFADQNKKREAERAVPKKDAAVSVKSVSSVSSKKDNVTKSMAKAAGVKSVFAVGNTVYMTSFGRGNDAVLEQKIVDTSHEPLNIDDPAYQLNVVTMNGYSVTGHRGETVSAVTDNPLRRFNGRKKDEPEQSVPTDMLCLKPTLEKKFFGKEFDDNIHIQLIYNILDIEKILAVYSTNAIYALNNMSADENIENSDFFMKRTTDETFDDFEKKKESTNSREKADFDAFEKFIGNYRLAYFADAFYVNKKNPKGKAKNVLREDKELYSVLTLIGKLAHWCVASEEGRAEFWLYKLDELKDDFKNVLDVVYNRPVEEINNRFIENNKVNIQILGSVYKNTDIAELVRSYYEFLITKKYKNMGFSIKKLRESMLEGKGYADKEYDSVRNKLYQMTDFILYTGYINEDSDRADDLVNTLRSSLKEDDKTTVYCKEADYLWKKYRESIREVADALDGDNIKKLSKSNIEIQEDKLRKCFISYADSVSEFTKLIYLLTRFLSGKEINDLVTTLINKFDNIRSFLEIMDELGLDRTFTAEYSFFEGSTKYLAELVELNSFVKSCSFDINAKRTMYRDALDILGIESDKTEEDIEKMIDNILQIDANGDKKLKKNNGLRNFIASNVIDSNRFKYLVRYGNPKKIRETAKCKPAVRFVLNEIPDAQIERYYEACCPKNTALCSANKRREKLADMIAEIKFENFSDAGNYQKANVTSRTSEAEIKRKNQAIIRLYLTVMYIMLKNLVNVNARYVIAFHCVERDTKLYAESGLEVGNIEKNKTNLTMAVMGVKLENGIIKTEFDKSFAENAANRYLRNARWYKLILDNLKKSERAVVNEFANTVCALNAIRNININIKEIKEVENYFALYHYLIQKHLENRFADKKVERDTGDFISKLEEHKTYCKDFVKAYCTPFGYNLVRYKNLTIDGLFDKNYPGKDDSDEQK
Experiment: crRNA (strand 1, pre-loaded); Mg2+; 40 mM Tris-HCl pH 7.5, 150 mM NaCl, 6 mM MgCl2, 1 mM DTT, 0.1% Tween-20, 0.2 mg/ml BSA; 25 C; 10 min per concentration, then washed
Conditions: tags: His6-TwinStrep-SUMO cleaved; N-terminal SNAP kept (SNAP-Surface 488); label: 3' end held by stalled T7 RNA polymerase
measure-name: Kd

- binder: "target 1 U3G,C6U (mixed) RNA 1: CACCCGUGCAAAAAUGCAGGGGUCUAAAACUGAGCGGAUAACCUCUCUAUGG RNA 2: GGGAAUGGAUCCACAUCUACGAAUUCGUACCAUAGAGAGGUUAUCUGCGCACCGAGAUCGGAAGAGCACACGU"
  endpoint-result: "4.79 nM"

Continue with the next binder.
Ask: Need Kd of target 1 insC 3' of 10,insU 3' of 7 (mixed) RNA 1: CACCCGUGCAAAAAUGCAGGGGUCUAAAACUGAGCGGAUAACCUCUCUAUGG RNA 2: GGGAAUGGAUCCACAUCUACGAAUUCGUACCAUAGAGAGGUUCAUCUCGCUCACCGAGAUCGGAAGAGCACACGU , thanks.
Result: 19.2 nM

Recorded values, source paper PMC10786891.
